- system-under-test: RSV F protein of subtype B strain 18537, on virus (respiratory syncytial virus subtype B …, UniProt P13843 26-574)
- Sequence (P13843 26-574): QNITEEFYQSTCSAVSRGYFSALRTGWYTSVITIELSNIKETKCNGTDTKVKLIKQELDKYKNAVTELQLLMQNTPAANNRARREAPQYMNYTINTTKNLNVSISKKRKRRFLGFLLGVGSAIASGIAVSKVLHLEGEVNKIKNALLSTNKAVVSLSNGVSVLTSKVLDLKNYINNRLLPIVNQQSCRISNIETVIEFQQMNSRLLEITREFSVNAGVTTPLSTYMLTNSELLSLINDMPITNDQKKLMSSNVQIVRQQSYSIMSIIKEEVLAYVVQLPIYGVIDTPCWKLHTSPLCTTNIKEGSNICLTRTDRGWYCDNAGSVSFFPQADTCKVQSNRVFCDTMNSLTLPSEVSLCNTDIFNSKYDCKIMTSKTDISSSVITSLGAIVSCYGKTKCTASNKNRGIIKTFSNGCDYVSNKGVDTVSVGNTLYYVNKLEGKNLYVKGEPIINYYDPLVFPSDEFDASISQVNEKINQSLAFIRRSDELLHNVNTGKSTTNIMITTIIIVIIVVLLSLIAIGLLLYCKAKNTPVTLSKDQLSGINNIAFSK
- assay-name: cell-based or functional assay
Measured Neut IC50 (ug/ml) subtype B, listed per entry.

See these solved cases before continuing.
>>> observed_result("ADI-15662 (antibody, V domains shown, IgG) VH: QVQLQESGPGLVKPSETLSLTCTVSGGSVSRGSYYWTWIRQPPGKGLEWIGYIYYSGSTNYNPSLKSRVTISVDTSKNQFSLKLSSVTAADTAVYYCARDIGEDKYGTYYGMDVWGQGTTVTVSS VL: EIVMTQSPATLSLSPGERATLSCRASQSVSSSLAWYQQKPGQAPRLLIYGASNRATGIPARFSGSGSGTDFTLTISSLEPEDFAVYYCQQRTNWPPVTFGPGTKVEIK")
"> 10 µg/mL"
>>> observed_result("ADI-15006 (antibody, V domains shown, IgG; also called Antibody Number 125) VH: EVQLVESGPGLVKPSGTLSLTCTVSGDSMSDYYWSWIRQSPGRGLEWLGYIYYDGSTNYNPSLKGRGTISIDTSKSQFSLTLSSVKAADTAVYYCARGKYYDRGGYYLFYLDYWGQGILVTVSS VL: DIRLTQSPSSLSASVGDRVTITCRASQTIASYVNWYQQKPGKAPKLLIYAASSLQDGVPSRFSGSGSGTDFALTISSLQPEDFAIYFCQQSYSTPIFTFGPGTKVEIK")
"> 10 µg/mL"

Turning to the following binder.
Entry ADI-15579 (antibody, V domains shown) VH: EVQLVESGGGLVQPGRSLRLSCAAFGFTFDDYAMHWVRQAPGKGLEWVSGISWNSGFIGYADSVKGRFTISRDNAKNSLSLQMNSLRTEDTALYYCAKTDGAVAVDGPFDYWGQGTLVTVSS VL: EIVLTQSPSSLSASVGDRVTITCRASQSISGYLSWYQQKPGKAPKLLIHSTSSLQSGVPSRFSGSGSGTDFTLTITSLQPEDFATYYCQQSYIAPPTFGQGTKVEIK has what Neut IC50 (ug/ml) subtype B?
> 10 µg/mL
